Test system: LOX IMVI melanoma
Experiment: NCI tumour cell line growth inhibition, 48 h
For each entry below, report its TGI value.

Query string: Reported TGI, molecule CC(=O)OCC1OC(n2c(C)c(N=Nc3ccc(Cl)cc3)c(C)c(C#N)c2=S)C(OC(C)=O)C(OC(C)=O)C1OC(C)=O (stereo unspecified) : ____
Result string: > 100 µM

Query string: Which measured TGI value corresponds to CN1CCN(/C(N)=C(\C#N)C(=O)Nc2ccc(Cl)cc2)CC1 ?
Result string: > 100 µM

Query string: Give its TGI value. Item: O=C1c2ccc3c4ccccc4n(-c4ccccc4)c3c2C(=O)N1c1ccc(Cl)cc1
Result string: > 100 µM

Query string: Given the entry Cn1c(=S)c2[nH]c(SCCCc3ccccc3)nc2n(C)c1=O , report its measured TGI.
Result string: > 100 µM

Query string: Find the recorded TGI belonging to CN1C(NNC(=O)c2cccnc2)=NS(=O)(=O)c2cc(Cl)ccc21 and report it.
Result string: > 100 µM

Query string: For the molecule shown here, Cc1cc(C)nc(NC(P(=O)(O)O)P(=O)(O)O)n1 , give the reported TGI.
Result string: > 100 µM

Query string: Please give the measured TGI for this molecule: CC1(C)OP(=O)(O)C=C1Sc1ccc([N+](=O)[O-])cc1[N+](=O)[O-]
Result string: > 100 µM

Query string: For CNC(C)C(O)c1ccc2oc3cc(=O)c4ccccc4c-3nc2c1 (stereo unspecified) , what is its reported TGI?
Result string: 26.7 µM

Query string: Entry under review: CC(=O)c1ccc2c(c1)C(=O)c1sc(C(C)=O)cc1C2=O . Reported TGI?
Result string: 2.12 µM

Query string: Requested read-out: TGI. Entry: NCCCNCCCCN1CCOC1=O
Result string: > 100 µM

Query string: Value lookup for TGI; key = COc1ccc(-c2noc(N)c2-c2cc(OC)c3c(c2)OCO3)cc1
Result string: > 100 µM

###

Tested on: ACHN renal
Assay: NCI tumour cell line growth inhibition, 48 h
I'd appreciate it if you could supply log10 of TGI values for the items below.
All values: base-10 log of TGI in µM.

Query string: Please state recorded log10 of TGI (tested on ACHN renal) of COc1cc2c3c(n(CCCN(CCO)CCO)c(=O)c2cc1OC)-c1cc2c(cc1C3=O)OCO2
Result string: -1.07

Query string: Lab note: need log10 of TGI with ACHN renal for entry Cc1c(Cl)cccc1NC(=O)c1cccc([N+](=O)[O-])c1O , please look it up.
Result string: 1.80

Query string: Record CCOC(=O)C(Cc1ccc(O)cc1)Nc1nc(=O)c2c(=O)oc(Cl)cc2o1 (stereo unspecified) : what is its log10 of TGI with ACHN renal?
Result string: 1.39

Query string: Query for ACHN renal: what log10 of TGI does the record show for COc1ccc(/C=N/N=C(\N)NO)c(OC)c1C ?
Result string: 1.63

Query string: Report log10 of TGI for NCCCOc1cc(Cl)ccc1NC(=O)c1cc2ccccc2cc1OCCCN tested on ACHN renal.
Result string: 0.46

###

For each of the molecules below, state its TGI.
Tested on: MDA-MB-231 breast
Assay: NCI tumour cell line growth inhibition, 48 h
Value expressed in µM; do not type the unit.

Query string: Returns the measured TGI for the input molecule. Input: O=C(CCN1CCOCC1)Nc1cccc(-n2cc(-c3ccncc3)c(-c3ccc(Cl)c(O)c3)n2)c1
Result string: 6.84

Query string: Look at this molecule and give its reported TGI. COc1cc(/C=C/C(=O)C(C(=O)/C=C/c2ccc(OC(=O)CCNC34CC5CC(CC(C5)C3)C4)c(OC)c2)C(=O)CCNC23CC4CC(CC(C4)C2)C3)ccc1OC(=O)CCNC12CC3CC(CC(C3)C1)C2 (stereo not given)
Result string: 26.5

Query string: Would you mind telling me what TGI value was observed for NC(N)=N/N=C(\N=Nc1ccccc1)c1ccc(Cl)cc1 ?
Result string: 12.7

Query string: Which measured TGI value corresponds to CNC(C)[C@H]1CCC2C3CC=C4C(=O)[C@@H](NC(=O)C=C(C)C)CC[C@]4(C)C3CC[C@@]21C (stereo not given in full) ?
Result string: 4.74

Query string: Look up TGI for this molecule: Oc1c(Br)ccc2cccnc12
Result string: 24.7

Query string: Quick check: TGI of COc1ccc(-c2nn(-c3cccc(Cl)c3)cc2-c2nc(N)[nH]c(=O)c2C#N)cc1 ?
Result string: 53.3

Query string: For the molecule shown here, CCOC(=O)C1=C(N)Oc2c(sc3c(C)cccc23)C1c1ccc(F)cc1 (stereo not given) , give the reported TGI.
Result string: 16

Query string: Reported TGI, molecule Cc1c2c(C(N)=O)nccc2c(C)c2c1c1ccccc1n2Cc1ccccc1 : ____
Result string: 28

Query string: Record request: TGI value, item O=[N+]([O-])c1c(F)c(F)c2c(c1F)N(CCCCCl)c1ccccc1S2
Result string: 21.9

Query string: Which TGI reading was recorded for the molecule CCOC(=O)c1c(OCC)[nH]c(=O)c(C(c2cccs2)c2c(O)c(C(=O)OCC)c(OCC)[nH]c2=O)c1O ?
Result string: 30.1

###

Tested on: SNB-19 CNS
Experiment: NCI tumour cell line growth inhibition, 48 h
Answer each item with its documented GI50.

Query string: Query: GI50; subject: COC(=O)[C@]12CC[C@@H](C)[C@H](C)[C@@H]1C1=CC[C@@H]3[C@@]4(C)C(C=O)=C[C@@](C)(COC(=O)c5ccco5)[C@@H]4[C@H](O)C[C@@]3(C)[C@]1(C)CC2
Result string: 4.32 µM

Query string: Please give the measured GI50 for this compound: Cc1ccc2[c](c1)[Sn]([c]1ccccc1)([c]1ccccc1)[c]1cc(C)ccc1N2C
Result string: > 100 µM

Query string: Reported GI50 for C=CCn1c(SCC(=O)Nc2ccc(C(=O)/C=C/c3cc(OC)c(OC)c(OC)c3)cc2)nnc1-c1ccc(OC)cc1 : what is it?
Result string: 0.59 µM

Query string: Name the recorded GI50 for Cc1noc2c1-c1ccccc1C(c1ccc(Cl)cc1)=N[C@H]2CC(N)=O .
Result string: 11 µM

Query string: Give its GI50 value. Item: Oc1ccc(Oc2cnc3ccccc3n2)cc1
Result string: > 100 µM

Query string: Requested read-out: GI50. Entry: COc1ccc(-c2cc(Nc3ccnc(N4CCOCC4)n3)on2)cc1
Result string: 0.428 µM

Query string: Any idea what its GI50 is? The compound is Clc1nc(Cl)c2ncn(Cc3ccccc3Cn3cnc4c(Cl)nc(Cl)nc43)c2n1
Result string: 2.9 µM

Query string: Fill blank: measured GI50 of the compound CCOC(=O)c1sc(NC(=O)COc2cccc(/C=C3\CCc4cc(OC)ccc4C3=O)c2)nc1C is ____.
Result string: 2.78 µM

Query string: Report GI50 for COc1cc(OC)c2sc(-c3ccc(-n4cncc4-c4cc(OC)c(OC)c(OC)c4)cc3)nc2c1 please.
Result string: > 100 µM

###

Test system: NCI-H522 lung
Experiment: NCI tumour cell line growth inhibition, 48 h
Measurement name: log10(TGI) (log10 of the value in µM)
Heads up: the numbers are on a log10 scale; they represent TGI in µM.

Query string: For the compound shown here, COc1ccc(-c2nn(-c3cccc(Cl)c3)cc2-c2nc(N)[nH]c(=O)c2C#N)cc1 , give the reported log10(TGI).
Result string: 0.99

Query string: Sample CC(C)(C)OC(=O)N1C2CCCC23O[C@@H]1c1cc2c(cc1C3=O)OCO2 (stereo partly specified) — what was its log10(TGI)?
Result string: 1.50

Query string: Look up log10(TGI) for this compound: N/C(=N\S(=O)(=O)c1ccc(-c2ncccc2C(F)(F)F)s1)Nc1ccc(Cl)cc1
Result string: 1.37

Query string: Name the recorded log10(TGI) for CC(=O)c1c(N=[N+]=[N-])c2cccc3c2n(c1=O)CCC3 .
Result string: 1.45

Query string: What log10(TGI) value was documented for this compound, Cc1ccc(CSC(N)=Nc2ccccc2)cc1C ?
Result string: 1.55

Query string: What does the data say about its log10(TGI)? Entry: COc1cc(/C=C/C(=O)C(C(=O)/C=C/c2ccc(OC(=O)CCNC34CC5CC(CC(C5)C3)C4)c(OC)c2)C(=O)CCNC23CC4CC(CC(C4)C2)C3)ccc1OC(=O)CCNC12CC3CC(CC(C3)C1)C2 (stereo unspecified)
Result string: 1.18

Query string: What value of measured log10(TGI) is listed for COc1cc2c(cc1OC)C1Cc3cc(OC)c(OC)cc3N1CC2 (stereo unspecified) ?
Result string: 1.54

Query string: What value of log10(TGI) has been recorded for this entry: CNCCn1c(=O)c2cc(OC)c(OC)cc2c2cnc3cc4c(cc3c21)OCO4
Result string: -1.58

Query string: Looking for the measured log10(TGI) of CCCn1cnc2c(SCc3ccc(Cl)cc3)nc(N)nc21 , can you help?
Result string: 1.57

Query string: Fill in the blank: the reported log10(TGI) of CCOP(=O)(OCC)/C(C#N)=C/c1ccc(-c2cc(C(F)(F)F)cc(C(F)(F)F)c2)o1 is ____.
Result string: 1.39
